- study.target: T1, Anti-CD28 Fab (SEQ ID NOs: 202, 203)
- T1 construct: biotinylated and captured on neutravidin coated plates in the phage ELISA
- T1 sequence (VH, as listed by the source, chain 1 of 2): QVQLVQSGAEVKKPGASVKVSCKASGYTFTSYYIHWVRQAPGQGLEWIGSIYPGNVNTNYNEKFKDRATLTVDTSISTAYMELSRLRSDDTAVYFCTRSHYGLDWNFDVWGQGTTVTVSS
- T1 sequence (VL, as listed by the source, chain 2 of 2): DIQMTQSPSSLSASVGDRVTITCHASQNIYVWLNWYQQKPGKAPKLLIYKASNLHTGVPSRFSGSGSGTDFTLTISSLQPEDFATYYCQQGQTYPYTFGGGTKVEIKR
- method.summary: phage ELISA, Fab on plate;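 also: crude clonal phage supernatants added to wells pretreated with blocking buffer with or without CD28 antigen, then bound phage read out via HRP-linked anti-M13 antibody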
parameter.measured: Anti-CD28 Fab (SEQ ID NOs: 202, 203) signal
Answer field: number only, no words.

Here is how some binders turned out for Anti-CD28 Fab (SEQ ID NOs: 202, 203) signal.
binder	measured.value
YCAGLFEEYMSKCL [Phage-685]	1.25
YCEGHSQTYMWKCL [Phage-709]	1.17
YCDGHLQMYMMKCL [Phage-724]	1.14
YCDGHSSVYMLKCL [Phage-680]	1.26
YCEGHSAEHMPKCL [Phage-696]	1.23
YCDGHIPEYMTKCL [Phage-661]	1.31
YCEGHSLEYMMKCV [Phage-664]	1.3
YCEGHSEEYMAKCL [Phage-682]	1.26
YCEGHSTEYIQKCL [Phage-694]	1.23
YCDGHAKVYIWKCL [Phage-745]	1.06

input: Recall and state the measured Anti-CD28 Fab (SEQ ID NOs: 202, 203) signal for YCEGHLWEYLAKCL [Phage-734] .
output: 1.1

input: Recall and state the measured Anti-CD28 Fab (SEQ ID NOs: 202, 203) signal for YCSEHQIIFIQKCL [Phage-654] .
output: 1.32

input: Recall and state the measured Anti-CD28 Fab (SEQ ID NOs: 202, 203) signal for YCAGHALEYMGKCL [Phage-657] .
output: 1.32
